Observed Ki values for human dopamine D2Long (D2L) receptors (Homo sapiens, UniProt P14416) are listed in what follows.
Structures can show the parent of a compound that is named as a salt.

Cc1ccc2c(c1O)C[C@@H](C1CCN(C(=O)N3CCOCC3)CC1)O[C@H]2CN [Example 134, hydrochloride]
≥ 100000 nM
Cc1ccc2c(c1O)C[C@@H](C1CCN(C(C)Cc3ccccc3)CC1)O[C@H]2CN (some centres unmarked) [Example 30, dihydrobromide]
≥ 10000 nM
Cc1ccc2c(c1O)C[C@@H](C1CCN(C(=O)OC(C)C)CC1)O[C@H]2CN [Example 111, hydrochloride]
794 nM
Cc1ccc2c(c1O)C[C@@H](C1CCN(C3Cc4ccccc4C3)CC1)O[C@H]2CN [Example 32, dihydrobromide]
127 nM
Cc1ccc2c(c1O)C[C@@H](C1CCN(C(=O)Oc3ccc(F)cc3)CC1)O[C@H]2CN [Example 118, hydrochloride]
≥ 10000 nM

query: What value of Ki on human dopamine D2Long (D2L) receptors (Homo sapiens, UniProt P14416) does Cc1ccc2c(c1O)C[C@@H](C1CCN(CCC(C)NC(=O)c3cccs3)CC1)O[C@H]2CN (some centres unmarked) [Example 25, dihydrochloride] have?
result: 218 nM

query: What value of Ki on human dopamine D2Long (D2L) receptors (Homo sapiens, UniProt P14416) does Cc1ccc2c(c1O)C[C@@H](C1CCN(CCC(C)C)CC1)O[C@H]2CN [Example 41, dihydrochloride] have?
result: ≥ 10000 nM

query: What value of Ki on human dopamine D2Long (D2L) receptors (Homo sapiens, UniProt P14416) does Cc1ccc2c(c1O)C[C@@H](C1CCN(Cc3cc(C(F)(F)F)ccc3C(F)(F)F)CC1)O[C@H]2CN [Example 76, dihydrochloride] have?
result: 41 nM

query: What value of Ki on human dopamine D2Long (D2L) receptors (Homo sapiens, UniProt P14416) does Cc1ccc2c(c1O)C[C@@H](C1CCN(S(=O)(=O)Cc3ccccc3[N+](=O)[O-])CC1)O[C@H]2CN [Example 158, hydrochloride] have?
result: ≥ 100000 nM

query: What value of Ki on human dopamine D2Long (D2L) receptors (Homo sapiens, UniProt P14416) does CNC[C@@H]1O[C@H](C2CCN(CC3CCCCC3)CC2)Cc2c1ccc(C)c2O [Example 96, dihydrochloride] have?
result: 552 nM

query: What value of Ki on human dopamine D2Long (D2L) receptors (Homo sapiens, UniProt P14416) does Cc1ccc2c(c1O)C[C@@H](C1CCN(C(=O)N(C)c3ccccc3)CC1)O[C@H]2CN [Example 131, hydrochloride] have?
result: ≥ 10000 nM

query: What value of Ki on human dopamine D2Long (D2L) receptors (Homo sapiens, UniProt P14416) does COC(=O)N1CCC([C@@H]2Cc3c(ccc(C)c3O)[C@H](CN)O2)CC1 [Example 112, hydrochloride] have?
result: ≥ 100000 nM

query: What value of Ki on human dopamine D2Long (D2L) receptors (Homo sapiens, UniProt P14416) does Cc1ccc2c(c1O)C[C@@H](C1CCN(Cc3ccc(Cl)c(Cl)c3)CC1)O[C@H]2CN [Example 60, dihydrochloride] have?
result: 364 nM

query: What value of Ki on human dopamine D2Long (D2L) receptors (Homo sapiens, UniProt P14416) does Cc1ccc2c(c1O)C[C@@H](C1CCN(C(=O)Nc3ccccc3O)CC1)O[C@H]2CN [Example 127, hydrochloride] have?
result: ≥ 10000 nM

* * *

Target Of Assay: human dopamine D1 receptor (Homo sapiens, UniProt P21728)
Construct: A 1.4 Kb Hind III to Xho I fragment was subcloned into the vector pMMLV; expressed in transfected cells; host or cells: CHO cells, clone CHO-D1M#9 (plasmid pHD1MMLV), membranes
Sequence (P21728 whole entry, the tested form may be a part): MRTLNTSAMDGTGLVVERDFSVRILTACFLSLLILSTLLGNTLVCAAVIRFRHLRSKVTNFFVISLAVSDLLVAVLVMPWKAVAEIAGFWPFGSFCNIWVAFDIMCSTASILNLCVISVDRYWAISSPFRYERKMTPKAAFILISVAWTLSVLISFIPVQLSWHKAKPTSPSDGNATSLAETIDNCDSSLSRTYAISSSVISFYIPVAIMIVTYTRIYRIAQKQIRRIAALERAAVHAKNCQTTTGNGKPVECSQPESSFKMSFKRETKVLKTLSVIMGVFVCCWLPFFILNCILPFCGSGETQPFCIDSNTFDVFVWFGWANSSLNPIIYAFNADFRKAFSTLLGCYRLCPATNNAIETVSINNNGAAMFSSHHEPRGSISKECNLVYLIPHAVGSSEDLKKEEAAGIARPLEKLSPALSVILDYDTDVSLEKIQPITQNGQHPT
Experimental Details: [3H]-SCH-23390 binding to cloned human dopamine D1 receptors (CHO cell membranes)
Stated Conditions: competitive binding, [3H]-SCH-23390, cloned human D1 in CHO membranes; read-out: D1 affinity Ki
Where a name gives a salt, the structure may show the parent alone.
Value Type: Ki (nM)
Dear colleague, please return just the value in nM, with no unit written.

Some entries whose results are on file:
CCCCN1CCC([C@@H]2Cc3c(ccc(C)c3O)[C@H](CN)O2)CC1 [Example 33, dihydrochloride]
70
Cc1ccccc1CN1CCC([C@@H]2Cc3c(ccc(C)c3O)[C@H](CN)O2)CC1 [Example 64, dihydrochloride]
198
Cc1ccc2c(c1O)C[C@@H](C1CCN(Cc3ccc(Cl)c(C(F)(F)F)c3)CC1)O[C@H]2CN [Example 78, dihydrochloride]
14
COc1cccc(NC(=O)N2CCC([C@@H]3Cc4c(ccc(C)c4O)[C@H](CN)O3)CC2)c1
79
C=CCN(CC=C)C[C@@H]1O[C@H](C2CCN(CC(=O)c3ccccc3)CC2)Cc2c1ccc(C)c2O
642
Cc1ccc2c(c1O)C[C@@H](C1CCN(CC(C)c3ccccc3)CC1)O[C@H]2CN (some centres unmarked) [Example 29, dihydrobromide]
64

query: Endpoint output: Ki of CNC[C@@H]1O[C@H](C2CCN(CCc3ccccc3)CC2)Cc2c1ccc(C)c2O [Example 94, dihydrochloride] . Value?
result: 113

query: Endpoint output: Ki of `CCCN(C)C[C@@H]1O[C@H](C2CCN(Cc3ccc(C(F)(F)F)cc3)CC2)Cc2c1ccc(C)c2O` . Value?
result: 110

* * *

Target Of Assay: D1 receptor (Homo sapiens)
Construct: expressed in transfected cells; host or cells: D1 transfected CHO cell line
Sequence (P21728 whole entry): as the sequence (P21728 whole entry, the tested form may be a part) above
Experimental Details: D1 Activation Adenylyl Cyclase Assay (cAMP FlashPlate, D1 transfected CHO cell line)
Type: cell-based
Stated Conditions: agonist activity at the D1 receptor, adenylate cyclase assay, D1 transfected CHO cell line; read-out: D1 EC50
Counter-ions that a name gives are not always drawn.
Value Type: pEC50
Scale: pEC50 equals -log10([C]), with [C] in mol/L.

Some entries whose results are on file:
COC(=O)N1CCC([C@@H]2Cc3c(ccc(C)c3O)[C@H](CN)O2)CC1 [Example 112, hydrochloride]
9.22
COc1ccc(S(=O)(=O)N2CCC([C@@H]3Cc4c(ccc(C)c4O)[C@H](CN)O3)CC2)cc1OC [Example 144, hydrochloride]
8.44
CCNC[C@@H]1O[C@H](C2CCN(Cc3ccc(C(F)(F)F)cc3)CC2)Cc2c1ccc(C)c2O [Example 182]
5.89
Cc1ccc2c(c1O)C[C@@H](C1CCN(CCO)CC1)O[C@H]2CN [Example 43, dihydrochloride]
6.96
Cc1ccc2c(c1O)C[C@@H](C1CCN(CC3CCCCC3)CC1)O[C@H]2CN [Example 34, dihydrochloride]
7.18
Cc1ccc2c(c1O)C[C@@H](C1CCN(CCC(C)NC(=O)c3ccc(C(F)(F)F)cc3)CC1)O[C@H]2CN (some centres unmarked) [Example 16, dihydrochloride]
7.25
Cc1ccc2c(c1O)C[C@@H](C1CCN(Cc3ccc(O)cc3)CC1)O[C@H]2CN [Example 62, dihydrochloride]
7.85
Cc1ccc2c(c1O)C[C@@H](C1CCN(CCC(C)NC(=O)c3ccccc3)CC1)O[C@H]2CN (some centres unmarked) [Example 21, dihydrochloride]
7.85
Cc1ccc2c(c1O)C[C@@H](C1CCN(C(C)Cc3ccccc3)CC1)O[C@H]2CN (some centres unmarked) [Example 30, dihydrobromide]
7.22
Cc1ccc2c(c1O)C[C@@H](C1CCN(Cc3ccccc3F)CC1)O[C@H]2CN [Example 36, dihydrobromide]
7.21

query: Endpoint output: pEC50 of Cc1ccc2c(c1O)C[C@@H](C1CCN(C(=O)N3CCCC3)CC1)O[C@H]2CN [Example 135, hydrochloride] . Value?
result: 8.55

query: Endpoint output: pEC50 of Cc1ccc2c(c1O)C[C@@H](C1CCN(Cc3ccc(F)c(F)c3)CC1)O[C@H]2CN [Example 63, dihydrochloride] . Value?
result: 8.05

query: Endpoint output: pEC50 of Cc1ccc2c(c1O)C[C@@H](C1CCN(C(=O)OC(C)C)CC1)O[C@H]2CN [Example 111, hydrochloride] . Value?
result: 7.31

query: Endpoint output: pEC50 of Cc1ccc2c(c1O)C[C@@H](C1CCN(Cc3cc(C(F)(F)F)cc(C(F)(F)F)c3)CC1)O[C@H]2CN [Example 75, dihydrochloride] . Value?
result: 6.66

* * *

Target Of Assay: human dopamine D2Long (D2L) receptors (Homo sapiens, UniProt P14416)
Sequence (P14416 whole entry): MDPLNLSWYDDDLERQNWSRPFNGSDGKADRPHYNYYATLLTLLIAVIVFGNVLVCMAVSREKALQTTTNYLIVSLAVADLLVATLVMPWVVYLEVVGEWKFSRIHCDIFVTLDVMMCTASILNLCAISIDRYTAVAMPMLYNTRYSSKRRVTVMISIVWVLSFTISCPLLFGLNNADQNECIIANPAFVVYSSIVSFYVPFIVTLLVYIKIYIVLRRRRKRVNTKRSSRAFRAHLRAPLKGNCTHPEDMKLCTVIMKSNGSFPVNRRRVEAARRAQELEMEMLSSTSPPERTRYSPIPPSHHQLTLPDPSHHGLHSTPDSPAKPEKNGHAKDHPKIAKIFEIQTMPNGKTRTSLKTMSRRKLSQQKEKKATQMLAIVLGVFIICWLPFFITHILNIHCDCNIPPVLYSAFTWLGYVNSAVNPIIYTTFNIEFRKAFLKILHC
Where a name gives a salt, the structure may show the parent alone.
Value Type: Ki

Some entries whose results are on file:
Cc1ccc2c(c1O)C[C@@H](C1CCN(S(=O)(=O)CCc3cccc4ccccc34)CC1)O[C@H]2CN [Example 159, hydrochloride]
≥ 100000 nM
CNC[C@@H]1O[C@H](C2CCN(Cc3ccc(C(C)C)cc3)CC2)Cc2c1ccc(C)c2O [Example 97, dihydrochloride]
357 nM
Cc1ccc2c(c1O)C[C@@H](C1CCN(S(=O)(=O)c3ccc(Cl)cc3Cl)CC1)O[C@H]2CN [Example 149, hydrochloride]
589 nM

Let's switch to this compound now.
query: Endpoint output: Ki of Cc1ccc2c(c1O)C[C@@H](C1CCN(CCC(C)NC(=O)c3ccc(-c4ccccc4)cc3)CC1)O[C@H]2CN (stereo partly drawn) [Example 18, dihydrochloride] . Value?
result: 389 nM

Values compiled from patent US7919508B2.
